# key: entry, value: TGFb3 IC50 (SMAD3 phosphorylation in CMVICs, AlphaLISA)
- Measured On: T1, TGFβ3 (R&D Systems)
- T1 sequence (P10600 301-412, species assumed, looked up): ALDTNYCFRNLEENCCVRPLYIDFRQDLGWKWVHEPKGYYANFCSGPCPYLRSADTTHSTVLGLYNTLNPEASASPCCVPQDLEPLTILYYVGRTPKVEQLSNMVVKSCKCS
- Protocol Notes: cell-based or functional assay
The response must be a number in µg/mL with no trailing unit.

(Q) Answer with the recorded TGFb3 IC50 (SMAD3 phosphorylation in CMVICs, AlphaLISA) of Felinized anti-TGFβ1,2,3 antibody VH6.1 - VL3 (antibody, V domains shown) VH: QVLLVQSGAEVRTPGASVKIFCKASGYGFTSNVISWVRQSPAQGLEWMGGVIPIVDIANYAQRFKGRLTLTADTSTDTAYMELSSLRSADTAMYYCASTLGLVLDAMDYWGQGTLVTVSS VL: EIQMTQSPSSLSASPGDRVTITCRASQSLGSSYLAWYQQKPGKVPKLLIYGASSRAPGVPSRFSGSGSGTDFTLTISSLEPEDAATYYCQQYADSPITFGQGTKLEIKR only.
(A) 0.014

(Q) Answer with the recorded TGFb3 IC50 (SMAD3 phosphorylation in CMVICs, AlphaLISA) of Caninized anti-TGFβ1,2,3 antibody VH3.1 - VL3 (antibody, V domains shown) VH: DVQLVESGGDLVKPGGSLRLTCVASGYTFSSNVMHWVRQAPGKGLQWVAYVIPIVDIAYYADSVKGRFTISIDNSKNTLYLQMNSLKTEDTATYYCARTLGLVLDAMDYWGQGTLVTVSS VL: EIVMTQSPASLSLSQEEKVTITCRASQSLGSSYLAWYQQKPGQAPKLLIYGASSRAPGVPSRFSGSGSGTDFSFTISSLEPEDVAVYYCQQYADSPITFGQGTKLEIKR only.
(A) 0.034

(Q) Answer with the recorded TGFb3 IC50 (SMAD3 phosphorylation in CMVICs, AlphaLISA) of Caninized anti-TGFβ1,2,3 antibody VH4.5 - VL2 (ZTS-207) (antibody, V domains shown) VH: EVQLVESGGDLVKPAGSLRLSCVASGYTFSSNVMSWVRQAPGKGLQWVGYVIPIVDIANYADAVKGRFTISRDNAKNTLYLQMNSLRVEDTAVYYCTRTLGLVLDAMDYWGQGTLVTVSS VL: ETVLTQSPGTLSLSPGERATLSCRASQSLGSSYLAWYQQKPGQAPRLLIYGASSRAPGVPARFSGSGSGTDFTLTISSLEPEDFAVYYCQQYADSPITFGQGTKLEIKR only.
(A) 0.02

(Q) Answer with the recorded TGFb3 IC50 (SMAD3 phosphorylation in CMVICs, AlphaLISA) of Caninized anti-TGFβ1,2,3 antibody VH5.10 - VL3 (antibody, V domains shown) VH: EVQLVESGGDLVKPGGSLRLSCVASGFTFSSNVISWVRQAPGQGLEWMGGVIPIVDIANYAQRFKGRVTLTADTSTNTVYMELSNLRTEDTAVYYCARTLGLVLDAMDYWGQGTLVTVSS VL: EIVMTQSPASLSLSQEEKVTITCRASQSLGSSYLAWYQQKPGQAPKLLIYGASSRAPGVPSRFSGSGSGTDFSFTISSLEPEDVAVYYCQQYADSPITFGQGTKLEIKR only.
(A) 0.113

(Q) Answer with the recorded TGFb3 IC50 (SMAD3 phosphorylation in CMVICs, AlphaLISA) of Felinized anti-TGFβ1,2,3 antibody VH3.2 - VL3 (antibody, V domains shown) VH: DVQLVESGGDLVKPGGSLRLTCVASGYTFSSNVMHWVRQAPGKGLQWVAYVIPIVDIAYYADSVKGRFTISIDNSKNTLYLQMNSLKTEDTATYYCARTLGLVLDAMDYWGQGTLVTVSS VL: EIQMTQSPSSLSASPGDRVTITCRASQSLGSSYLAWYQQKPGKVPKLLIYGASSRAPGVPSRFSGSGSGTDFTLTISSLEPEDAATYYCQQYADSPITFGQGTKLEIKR only.
(A) 0.023
